Test: Tanguay_ZF_120hpf_ANY: Oregon State University Tanguay Lab 120 Hour Post-fertilization zebrafish Assay for Any Mortality and Malformation (AID 2284404)
Calls of active or inactive are those of the source. How the source made its calls: active means hit-call score of the fitted dose curve at least 0.9, where 1 is the maximum; inactive means score below 0.9.
Pick one and only one: active, inactive

For orientation, consider the following solved cases.
COMPOUND	CAT
N=C(N)C(F)(F)C(F)(F)C(F)(F)C(F)(F)C(F)(F)C(F)(F)C(F)(F)F	inactive
O=C(O)C(F)(F)C(F)(F)C(F)(F)C(F)(F)C(F)(F)C(F)(F)C(F)(F)C(F)(F)C(F)(F)C(F)(F)C(F)(F)C(F)(F)C(F)(F)F	inactive
FC(F)(F)C(F)(F)C(F)(F)C(F)(F)C(F)(F)C(F)(F)C(F)(F)I	inactive
CC(C)(C)C(=O)CC(=O)C(F)(F)C(F)(F)C(F)(F)F	inactive
NC(=O)C(F)(F)C(F)(F)C(F)(F)C(F)(F)F	inactive

Prompt: Tell me the assay call for FC1CC(F)(F)C(F)(F)C1(F)F (stereo not drawn) please.
Completion: inactive

Prompt: Same question, C=CC(F)(F)C(F)(F)C(F)(F)C(F)(F)C(F)(F)C(F)(F)C(F)(F)C(F)(F)F this time
Completion: inactive

Prompt: Same question, C=C(C)C(=O)OCCC(F)(F)C(F)(F)C(F)(F)C(F)(F)C(F)(C(F)(F)F)C(F)(F)F this time
Completion: inactive

Prompt: Same question, CCCCCCCCC(F)(F)C(F)(F)C(F)(F)C(F)(F)C(F)(F)C(F)(F)F this time
Completion: inactive

Prompt: Same question, OCCCC(F)(F)C(F)(F)C(F)(F)F this time
Completion: inactive
